# System: CCRIS mutagenicity, Ames/micronucleus/aberration tests
# ASSAY_SUMMARY: CCRIS mutagenicity studies
# MEASUREMENT_SETUP: Test System: AMES SALMONELLA TYPHIMURIUM; Strain/Indicator: TA1535; Metabolic Activation: RAT, LIVER, S-9, AROCLOR 1254; Method: STANDARD PLATE
Active and inactive are the calls of the source. No rule for the calls is given here.
Outcome codes: yes (1) (active), no (0) (inactive)

O=C(Cl)OCc1ccccc1    no (0)
CN(CCCC(=O)c1cccnc1)N=O    yes (1)
COc1ccc(CNCC(O)COc2ccc3[nH]c(=O)ccc3c2)cc1OC (configuration not stated)    no (0)
CC1(S(=O)(=O)O)CC(=O)c2ccccc2C1=O (configuration not stated) (tested in a mixture with another compound)    no (0)
CC(=O)OCC1=CO[C@@H](OC(=O)CC(C)C)[C@H]2C1=C[C@H](OC(=O)CC(C)C)[C@]21CO1    no (0)
CCCCC(CC)COP(=O)(OCC(CC)CCCC)OCC(CC)CCCC (configuration not stated)    no (0)
Cc1cc(N)c(C)c([N+](=O)[O-])c1N    no (0)
N#CCCNCCC#N    no (0)
Oc1ccc(O)c2c(O)c3ccccc3c(O)c12    no (0)
Nc1ccc2cc3ccccc3cc2c1    yes (1)
O=C(O)CCCC[C@@H]1SC[C@@H]2NC(=O)N[C@@H]21    no (0)
O=C(O)c1nn(Cc2ccc(Cl)cc2Cl)c2ccccc12    no (0)

----------
# System: CCRIS mutagenicity, Ames/micronucleus/aberration tests
# ASSAY_SUMMARY: CCRIS mutagenicity studies
# MEASUREMENT_SETUP: End Point: IN VITRO CHROMOSOMAL ABERRATIONS; Test System: CHO CELLS; Metabolic Activation: NONE
Activity calls are given as the source filed them. No rule for the calls is given here.
Outcome codes: active, inactive

O=[N+]([O-])c1ccc(O)c([N+](=O)[O-])c1    active
O=S(=O)(O)c1ccc(N=Nc2cc(S(=O)(=O)O)c3ccccc3c2O)c2ccccc12    inactive
CCC1CO1 (stereo not drawn)    inactive
O=C(O)CN(CC(=O)O)CC(=O)O    inactive
CCOC(=O)CC(SP(=O)(OC)OC)C(=O)OCC (stereo not drawn)    inactive
CCCCC(CC)COP(=O)(OCC(CC)CCCC)OCC(CC)CCCC (stereo not drawn)    inactive
N=C1C=CC(=C(c2ccc(N)cc2)c2ccc(N)cc2)C=C1    inactive
C=CCOC(=O)CC(C)C    inactive

----------
# System: CCRIS mutagenicity, Ames/micronucleus/aberration tests
# ASSAY_SUMMARY: CCRIS mutagenicity studies
# MEASUREMENT_SETUP: Test System: AMES SALMONELLA TYPHIMURIUM; Strain/Indicator: TA100; Metabolic Activation: RAT, LIVER, S-9, PCB; Method: PREINCUBATION
Active and inactive are the calls of the source. How the calls were made is not given here.
Outcome codes: yes = active, no = inactive

CCCCN(C[C@@H](CO)OCc1ccccc1)N=O    yes
Nc1ncnc2c1ncn2-c1cccc([N+](=O)[O-])c1    yes
CC(=O)Nc1ccc(O)cc1    no
Cc1c(N(C)C)c(=O)n(-c2ccccc2)n1C    no
c1cnc2cnncc2c1    no
[N-]=[N+]=[N-]    yes
COc1cccc(C(=O)CBr)c1    no
C/C=C1\C[C@@H](C)[C@](C)(OC(C)=O)C(=O)OC/C2=C/CN(C)CC[C@@H](OC1=O)C2=O    yes
O=C1c2ccccc2C(=O)c2c1cc(O)c(C(=O)O)c2O    no
C1N2CN3CN1CN(C2)C3    no
CCN(CC)CCCN    no
Nc1ccc(Oc2ccc(N)cc2)cc1    yes
CC(=O)CN(C)N=O    yes
C[Si](C)(C)N=[N+]=[N-]    yes
NC1CCCC(N)C1 (stereo not drawn)    no
Cc1cccc(NO)c1    yes
O=[N+]([O-])c1ccc2c(c1)Oc1ccc([N+](=O)[O-])cc1O2    no
c1ccc2cnncc2c1    no
